System: Hs578T
Experiment: normalised response (% of control), CellTiter-Glo; higher = more viable cells (100 = DMSO, 0 = benzethonium chloride kill control)
Settings: incubation time: 72 h
Kindly state normalised response for each of the entries shown.
Answers are plain numbers, in %.

The following compounds have reported results that may help.
compound	targetOfAssay	scaleUnit	normalised response
Cn1c(=O)n(-c2ccc(C(C)(C)C#N)cc2)c2c3cc(-c4cnc5ccccc5c4)ccc3ncc21 [Dactolisib] (0.1 nM)	Hs578T	%	102
O=C(O)CCCc1ccc(N(CCCl)CCCl)cc1 [Chlorambucil] (1000 nM)	Hs578T	%	105
c1ccc([C@H]2CN3CCSC3=N2)cc1 [Levamisole] (1 nM)	Hs578T	%	105

List the reported normalised response of each compound below.
1. Cc1ccc(NC(=O)c2ccc(CN3CCN(C)CC3)cc2)cc1Nc1nccc(-c2cccnc2)n1 [Imatinib] (1 nM)
2. c1ccc([C@H]2CN3CCSC3=N2)cc1 [Levamisole] (10 nM)
3. CC(C)c1c(C(=O)Nc2ccccc2)c(-c2ccccc2)c(-c2ccc(F)cc2)n1CC[C@@H](O)C[C@@H](O)CC(=O)O [Atorvastatin] (1 nM)
4. C/C(=C\c1csc(C)n1)[C@@H]1C[C@@H]2O[C@]2(C)CCC[C@H](C)[C@H](O)[C@@H](C)C(=O)C(C)(C)[C@@H](O)CC(=O)O1 [Patupilone] (100 nM)
5. C/C(=C\c1csc(C)n1)[C@@H]1C[C@@H]2O[C@]2(C)CCC[C@H](C)[C@H](O)[C@@H](C)C(=O)C(C)(C)[C@@H](O)CC(=O)O1 [Patupilone] (0.1 nM)
6. C/C(=C\c1csc(C)n1)[C@@H]1C[C@@H]2O[C@]2(C)CCC[C@H](C)[C@H](O)[C@@H](C)C(=O)C(C)(C)[C@@H](O)CC(=O)O1 [Patupilone] (1 nM)
7. Nc1nc(OCc2cc(Br)cs2)c2[nH]cnc2n1 [Lomeguatrib] (10 nM)
8. CO[C@H]1C[C@@H]2CC[C@@H](C)[C@@](O)(O2)C(=O)C(=O)N2CCCC[C@H]2C(=O)O[C@H]([C@H](C)C[C@@H]2CC[C@@H](OCCO)[C@H](OC)C2)CC(=O)[C@H](C)/C=C(\C)[C@@H](O)[C@@H](OC)C(=O)[C@H](C)C[C@H](C)/C=C/C=C/C=C/1C [Everolimus] (10 nM)

A.
[103, 105, 98.9, 39.6, 99.3, 104, 105, 71.9]

Your task in this section: give normalised response for each listed record.
1. Cn1cncc1[C@@](N)(c1ccc(Cl)cc1)c1ccc2c(c1)c(-c1cccc(Cl)c1)cc(=O)n2C [Tipifarnib] (10 nM)
2. CNNCc1ccc(C(=O)NC(C)C)cc1 [Procarbazine] (10 nM)

A.
[95.8, 101]

----------
Task for the reader: assign each of the following molecules its reported normalised response.
Test system: CAL-120
Assay: normalised response (% of control), CellTiter-Glo; higher = more viable cells (100 = DMSO, 0 = benzethonium chloride kill control)
Conditions: incubation time: 72 h
One number for each entry, in %.

Please state, for each entry, its recorded normalised response.
1. CCCCCCCCc1ccc(CCC(N)(CO)CO)cc1 [Fingolimod] (10 nM)
2. Cn1cncc1[C@@](N)(c1ccc(Cl)cc1)c1ccc2c(c1)c(-c1cccc(Cl)c1)cc(=O)n2C [Tipifarnib] (1 nM)
3. NS(=O)(=O)OC[C@@H]1C[C@@H](n2ccc3c(N[C@H]4CCc5ccccc54)ncnc32)C[C@@H]1O [Pevonedistat] (1000 nM)
4. CNNCc1ccc(C(=O)NC(C)C)cc1 [Procarbazine] (10 nM)

A.
95.5
92.2
61.9
102

Numbers sourced from the supplement of paper PMC4862054.
